Each entry below lists one item and its recorded MIC value.
# Test system: Streptococcus faecalis ATTC 29212
# PROTOCOL DESCRIPTION: in vitro antibacterial MIC, agar plate dilution
# Format: cell-based
# ASSAY CONDITIONS: Enterococcus faecalis, ATTC29212, 18 hours, 35° C., read-out: MIC
Give the number; µg/mL is assumed, so skip it.

COMPOUND: O=C(O)c1cn(-c2ccc(F)cc2)c2cc(N3CCNC(c4ccco4)C3)c(F)cc2c1=O (stereo not shown)
TGT: Streptococcus faecalis ATTC 29212
UNIT ABBREVIATION: µg/mL
MIC: 0.5

May I ask what MIC has been recorded for CCn1cc(C(=O)O)c(=O)c2cc(F)c(N3CCNC(c4sc5ccccc5c4C)C3)cc21 (stereo not shown) ?
256

Looking for the measured MIC of CCn1cc(C(=O)O)c(=O)c2cc(F)c(N3CCNC(c4ccn(S(=O)(=O)c5ccccc5)c4)C3)cc21 (stereo not shown) , can you help?
4

Endpoint output: MIC of CCn1cc(C(=O)O)c(=O)c2cc(F)c(N3CCNC(c4ccc(C)s4)C3)cc21 (stereo not shown) . Value?
4
